Target: hRIPK1 (aa 1-375) fusion protein (Homo sapiens)
Construct: hRIPK1 (aa 1-375) fusion protein
Assay: ADP-Glo kinase assay: catalytic activity of RIPK1 (autophosphorylation, conversion of ATP to ADP)
Procedure: The catalytic activity of RIPK1 was measured by monitoring the conversion of Adenosine triphosphate (ATP) to Adenosine diphosphate (ADP) due to autophosphorylation using an ADP-Glo kinase kit (Promega, catalog no. V9104). […]
measured.endpoint: IC50 (nM)

See these solved cases before continuing.
Cc1ccc([C@@H]2CCON2C(=O)[C@H]2CC[C@H](Cc3ccnn3C)CC2)cn1 [compound 397]    61
Cc1ccc([C@@H]2CCON2C(=O)[C@]2(C)CC[C@@H](Cc3cc(C)c4nc(C)nn4c3)CC2)cn1 [compound 400]    19
Cc1cc(C[C@H]2CC[C@H](C(=O)N3OCC[C@H]3c3cncc(F)c3)CC2)cn2ncnc12 [compound 336]    17
Cn1nccc1C[C@H]1CC[C@H](C(=O)N2OCC[C@H]2c2ccc(F)cc2)CC1 [compound 306]    17
Cc1cnc([C@@H]2CCON2C(=O)[C@H]2CC[C@H](Cc3ccnn3C)CC2)cn1 [compound 395]    44
N#Cc1cncc([C@@H]2CCON2C(=O)[C@H]2CC[C@H](Cc3ccc(C4(O)COC4)cc3)CC2)c1 [compound 183]    45

[a] NC(=O)c1ccc2ccn(C[C@H]3CC[C@H](C(=O)N4OCC[C@H]4c4cc(F)cc(F)c4)CC3)c2c1 [compound 105]
[b] Cc1nc2c(C)cc(C[C@H]3CC[C@H](C(=O)N4OCC[C@H]4c4cnccn4)CC3)cn2n1 [compound 326]
[c] O=C1NCc2ccc(C[C@H]3CC[C@H](C(=O)N4OCC[C@H]4c4cnccn4)CC3)cc21 [compound 145]
Query string: Could you please sort these 3 entries by IC50 from high to low? Answer format: the labels, in the requested order.
Result string: b, c, a

---

Target: hRIPK1 (aa 1-375) fusion protein (Homo sapiens, UniProt Q13546)
Construct: hRIPK1 (aa 1-375) fusion protein
Sequence (Q13546 1-375): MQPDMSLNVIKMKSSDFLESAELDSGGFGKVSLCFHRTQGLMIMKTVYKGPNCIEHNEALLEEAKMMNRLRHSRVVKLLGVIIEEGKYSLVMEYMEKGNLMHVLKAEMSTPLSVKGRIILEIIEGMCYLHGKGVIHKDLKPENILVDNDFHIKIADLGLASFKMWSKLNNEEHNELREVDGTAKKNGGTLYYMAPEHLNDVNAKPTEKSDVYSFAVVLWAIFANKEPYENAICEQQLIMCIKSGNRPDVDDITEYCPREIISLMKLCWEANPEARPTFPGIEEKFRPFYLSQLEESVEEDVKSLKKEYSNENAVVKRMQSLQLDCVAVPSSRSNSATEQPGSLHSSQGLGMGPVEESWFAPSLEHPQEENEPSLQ
Experiment: ADP-Glo kinase assay: catalytic activity of RIPK1 (autophosphorylation, conversion of ATP to ADP)
pIC50: −log10 of the molar value.
measured.endpoint: pIC50

Cc1ccc([C@@H]2CCON2C(=O)[C@H]2CC[C@H](Cc3cnc4cnn(C)c4c3)CC2)cn1    7.36
NC(=O)c1cc(F)c2ncn(C[C@H]3CC[C@H](C(=O)N4OCC[C@H]4c4cc(F)cc(F)c4)CC3)c2c1    7.48
Cc1cnc([C@@H]2CCON2C(=O)[C@H]2CC[C@H](Cc3cc(C)c4nc(C)nn4c3)CC2)cn1    7.33
N#Cc1cncc(C[C@H]2CC[C@H](C(=O)N3OCC[C@H]3c3cnccn3)CC2)c1    7.40
Cc1c2ccccc2nn1C[C@H]1CC[C@H](C(=O)N2OCC[C@H]2c2cc(F)cc(C#N)c2)CC1    7.57

[a] Cc1cn2ncc(C[C@H]3CC[C@H](C(=O)N4OCC[C@H]4c4cnccn4)CC3)cc2n1
[b] N#Cc1cc(F)cc([C@@H]2CCON2C(=O)[C@H]2CC[C@H](Cc3cnccn3)CC2)c1
Query string: Lab note: check whether a or b has the lower measured pIC50. Give the label under which the chosen entry appears.
Result string: a

---

Target: hRIPK1 (aa 1-375) fusion protein (Homo sapiens, UniProt Q13546)
Construct: hRIPK1 (aa 1-375) fusion protein
Assay: ADP-Glo kinase assay: catalytic activity of RIPK1 (autophosphorylation, conversion of ATP to ADP)
measured.endpoint: IC50 (nM)

Cc1nc([C@@H]2CCON2C(=O)[C@H]2CC[C@H](Cc3cc(C)c4ncnn4c3)CC2)cs1    59
Cc1ncn(C[C@H]2CC[C@H](C(=O)N3OCC[C@H]3c3cc(F)cc(C#N)c3)CC2)c1C    67
N#Cc1ccc2cn(C[C@H]3CC[C@H](C(=O)N4OCC[C@H]4c4cc(F)cc(F)c4)CC3)nc2c1    24

[1] O=C([C@H]1CC[C@H](Cc2ccc(CCO)c(F)c2)CC1)N1OCC[C@H]1c1cc(F)cc(F)c1
[2] O=C([C@H]1CC[C@H](Cn2ccc3ncc(F)cc32)CC1)N1OCC[C@H]1c1cc(F)cc(F)c1
Query string: Out of 1 and 2 , name the one with the higher IC50. Give the label under which the chosen entry appears.
Result string: 2
(2: 19 nM, 1: 13 nM)

[a] CC1(Oc2cnc3ccn(C[C@H]4CC[C@H](C(=O)N5OCC[C@H]5c5cc(F)cc(C#N)c5)CC4)c3c2)CC1
[b] N#Cc1cncc([C@@H]2CCON2C(=O)[C@H]2CC[C@H](Cn3cnc4cc(C#N)c(F)cc43)CC2)c1
[c] Cc1ccc(C[C@H]2CC[C@H](C(=O)N3OCC[C@H]3c3cncc(C#N)c3)CC2)cc1C(N)=O
Query string: Could you please sort these 3 entries by IC50 from high to low? Answer format: the labels, in the requested order.
Result string: b, a, c

[P] Cc1cc(C[C@H]2CC[C@H](C(=O)N3OCC[C@H]3c3ccc(F)cc3)CC2)cn2c(C)nnc12
[Q] Cc1ccc([C@@H]2CCON2C(=O)C23CCC(Cc4ccc(C)c(C(N)=O)c4)(CC2)C3)cn1
Query string: Out of P and Q , name the one with the higher IC50. Give the label under which the chosen entry appears.
Result string: Q

[I] Cc1ccc([C@@H]2CCON2C(=O)[C@H]2CC[C@H](Cc3cc(F)c4nnc(C)n4c3)CC2)cn1
[II] Cc1ccc([C@@H]2CCON2C(=O)[C@H]2CC[C@H](Cc3ccc(C)c(C(N)=O)c3)CC2)cc1
Query string: Lab note: check whether I or II has the lower measured IC50. Give the label under which the chosen entry appears.
Result string: II
(II: 15 nM, I: 234 nM)

---

Biological target: hRIPK1 (aa 1-375) fusion protein (Homo sapiens)
Construct: hRIPK1 (aa 1-375) fusion protein
Sequence (Q13546 1-375): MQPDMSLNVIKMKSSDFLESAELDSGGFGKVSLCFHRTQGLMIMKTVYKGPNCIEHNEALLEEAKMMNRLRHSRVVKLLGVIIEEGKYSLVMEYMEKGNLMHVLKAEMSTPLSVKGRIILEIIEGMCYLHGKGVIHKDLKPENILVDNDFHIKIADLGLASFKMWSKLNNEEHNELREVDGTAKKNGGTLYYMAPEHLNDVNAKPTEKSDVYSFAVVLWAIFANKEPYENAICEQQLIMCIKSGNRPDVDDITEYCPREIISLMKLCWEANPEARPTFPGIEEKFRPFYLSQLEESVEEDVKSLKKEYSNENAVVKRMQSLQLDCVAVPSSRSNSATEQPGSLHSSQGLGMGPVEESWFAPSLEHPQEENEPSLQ
Test: ADP-Glo kinase assay: catalytic activity of RIPK1 (autophosphorylation, conversion of ATP to ADP)
measured.endpoint: IC50 (nM)

N#Cc1cnc2ccn(C[C@H]3CC[C@H](C(=O)N4OCC[C@H]4c4ccccn4)CC3)c2c1    37
CNC(=O)c1ccc(F)c(C[C@H]2CC[C@H](C(=O)N3OCC[C@H]3c3cncc(F)c3)CC2)c1    16

[1] Cc1nccn1-c1cc(F)cc(C[C@H]2CC[C@H](C(=O)N3OCC[C@H]3c3cc(F)cc(F)c3)CC2)c1
[2] N#Cc1cc(F)cc([C@@H]2CCON2C(=O)[C@H]2CC[C@H](Cn3ccc4c(F)cc(C#N)cc43)CC2)c1
Query string: Out of 1 and 2 , name the one with the higher IC50. Give the label under which the chosen entry appears.
Result string: 1
(1: 24 nM, 2: 13 nM)

---

Molecular target: hRIPK1 (aa 1-375) fusion protein (Homo sapiens)
Construct: hRIPK1 (aa 1-375) fusion protein
Sequence (Q13546 1-375): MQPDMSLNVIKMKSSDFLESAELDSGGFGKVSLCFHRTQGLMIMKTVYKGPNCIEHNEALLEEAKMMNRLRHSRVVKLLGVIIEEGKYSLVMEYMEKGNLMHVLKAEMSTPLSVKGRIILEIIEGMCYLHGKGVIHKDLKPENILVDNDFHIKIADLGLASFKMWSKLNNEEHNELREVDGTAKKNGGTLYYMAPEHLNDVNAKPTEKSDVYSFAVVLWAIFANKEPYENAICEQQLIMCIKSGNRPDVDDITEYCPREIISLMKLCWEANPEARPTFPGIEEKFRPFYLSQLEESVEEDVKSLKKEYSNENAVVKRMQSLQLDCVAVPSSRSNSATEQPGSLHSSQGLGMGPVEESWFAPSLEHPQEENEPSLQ
Experiment: ADP-Glo kinase assay: catalytic activity of RIPK1 (autophosphorylation, conversion of ATP to ADP)
measured.endpoint: IC50 (nM)

O=C([C@H]1CC[C@H](Cc2ccc(C3(O)COC3)cc2)CC1)N1OCC[C@H]1c1cc(F)cc(F)c1 [compound 171]    19
Cc1nc([C@@H]2CCON2C(=O)[C@H]2CC[C@H](Cn3cc4ccc(C(N)=O)cc4n3)CC2)cs1 [Compound 233]    114

[1] Cc1nn(C)cc1-c1cncc(C[C@H]2CC[C@H](C(=O)N3OCC[C@H]3c3cnccn3)CC2)c1 [compound 308]
[2] N#Cc1cncc([C@@H]2CCON2C(=O)[C@H]2CC[C@H](Cn3ccc4ncc(F)cc43)CC2)c1 [compound 123]
Query string: Out of 1 and 2 , name the one with the higher IC50. Give the label under which the chosen entry appears.
Result string: 2
